Each entry below carries its measured Ki, system: Urease (Glycine max, UniProt Q949H4).
Sequence (Q949H4 whole entry): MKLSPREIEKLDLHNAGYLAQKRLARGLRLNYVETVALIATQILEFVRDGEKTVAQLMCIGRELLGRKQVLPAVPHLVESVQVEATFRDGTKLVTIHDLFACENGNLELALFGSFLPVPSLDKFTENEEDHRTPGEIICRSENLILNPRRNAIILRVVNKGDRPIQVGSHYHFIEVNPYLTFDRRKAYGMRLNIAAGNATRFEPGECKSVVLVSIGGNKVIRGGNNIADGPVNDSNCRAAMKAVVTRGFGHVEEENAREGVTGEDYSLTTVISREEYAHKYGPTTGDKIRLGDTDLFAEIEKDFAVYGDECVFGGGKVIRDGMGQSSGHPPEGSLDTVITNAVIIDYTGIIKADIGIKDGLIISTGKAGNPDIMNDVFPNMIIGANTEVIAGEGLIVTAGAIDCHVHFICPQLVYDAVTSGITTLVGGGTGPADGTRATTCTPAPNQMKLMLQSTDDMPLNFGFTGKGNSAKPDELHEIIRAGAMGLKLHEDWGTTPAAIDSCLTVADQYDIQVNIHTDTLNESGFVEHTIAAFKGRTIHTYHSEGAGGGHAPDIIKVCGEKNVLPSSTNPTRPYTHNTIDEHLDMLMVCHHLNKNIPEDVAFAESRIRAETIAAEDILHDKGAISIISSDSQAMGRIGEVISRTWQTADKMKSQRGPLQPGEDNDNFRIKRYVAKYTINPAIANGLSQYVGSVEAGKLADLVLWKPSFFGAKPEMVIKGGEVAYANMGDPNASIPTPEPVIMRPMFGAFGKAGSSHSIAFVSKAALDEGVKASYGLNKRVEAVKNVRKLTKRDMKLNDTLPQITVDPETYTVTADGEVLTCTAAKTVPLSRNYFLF
# value in µM; strip the unit string

OB(O)c1ccccc1 [Phenylboronic acid, 22] : 2000
OB(O)c1ccc(Br)cc1 [4-bromo phenyl boronic acid] : 220

Task: Request - read-out Ki | tested on Urease (Glycine max, UniProt Q949H4) | molecule OB(O)O [Boric acid]
Result: 200
